System: Pseudomonas aeruginosa
Method: Antibacterial activity against Pseudomonas aeruginosa assessed as growth inhibition at 1 mg/well after 24 hrs by Well method
Type: functional
Kindly supply the reported inhibition zone (IZ) values for the records listed here.
One number for each entry, in mm.

Worked examples follow.
smiles_repr=C[C@@H](NCCC(=O)c1cccc(O)c1)[C@@H](O)c1ccccc1.Cl reported_metric="inhibition zone (IZ)" unit_spec=mm value_measured=20
smiles_repr=C[C@H](NCCC(=O)c1ccccc1)[C@H](O)c1ccccc1.Cl reported_metric="inhibition zone (IZ)" unit_spec=mm value_measured=20

Consider the following items and state reported inhibition zone (IZ) for each.
1. Cc1ccc(C(=O)CCN[C@@H](C)[C@H](O)c2ccccc2)cc1.Cl
2. C[C@@H](NCCC(=O)c1ccccc1)[C@@H](O)c1ccccc1.Cl
3. C[C@@H](NCCC(=O)c1ccc(Cl)cc1)[C@@H](O)c1ccccc1.Cl

Found:
1: 20; 2: 22; 3: 23

Consider the following items and state reported inhibition zone (IZ) for each.
1. C[C@H](NCCC(=O)c1cccc(O)c1)[C@H](O)c1ccccc1.Cl
2. C[C@H](NCCC(=O)c1ccc(Cl)cc1)[C@H](O)c1ccccc1.Cl

Found:
[22, 20]
